target.or.test.system: Aurora kinase A (Homo sapiens)
Sequence (O14965 whole entry): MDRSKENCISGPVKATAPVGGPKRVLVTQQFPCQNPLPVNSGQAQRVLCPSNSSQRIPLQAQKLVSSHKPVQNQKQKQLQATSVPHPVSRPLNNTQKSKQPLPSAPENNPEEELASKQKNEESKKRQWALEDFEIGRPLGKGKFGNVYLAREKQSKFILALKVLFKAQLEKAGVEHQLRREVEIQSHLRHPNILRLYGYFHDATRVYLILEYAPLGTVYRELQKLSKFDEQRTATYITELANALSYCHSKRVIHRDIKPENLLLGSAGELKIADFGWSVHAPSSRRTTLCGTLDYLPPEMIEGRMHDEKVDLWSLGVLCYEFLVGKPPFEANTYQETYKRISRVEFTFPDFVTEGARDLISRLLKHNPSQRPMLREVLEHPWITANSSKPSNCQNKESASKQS
protocol.description: Inhibition of Aurora A in human HeLa cells after 12 hrs by ELISA method
pIC50: −log10 of the molar value.
experimental.readout: pIC50

(A) CN1CCC(NC(=O)c2ccc(Nc3ncc(Br)c(NC4CCCC4)n3)cc2)CC1
(B) COc1cc(C(=O)NC2CCN(C)CC2)ccc1Nc1ncc(F)c(NC2CCCC2)n1
## Task Hi! Which is lower in terms of pIC50, the first one A or the second one B ? Provide the label of your selected option as the answer.
## Result B
(B: 7.37, A: 7.92)

====

The entries below come with measured IC50 values attached.
Tested on: HeLa
protocol.description: Cytotoxicity against human HeLa cells after 48 hrs by MTT assay
Assay type: functional, cell-based
All answers are understood in µM, so give the number only.

## Task Kindly indicate its recorded IC50. Item: "COc1cc(C(=O)NC2CCN(C)CC2)ccc1Nc1ncc(Br)c(NC2CCCC2)n1"
## Result 3.5

## Task For "Fc1cnc(Nc2ccc(N3CCOCC3)cc2)nc1NC1CC1" , write its IC50.
## Result 6

====

Entries and their measured IC50 follow.
Test system: HepG2
protocol.description: Cytotoxicity against human HepG2 cells after 48 hrs by MTT assay
Assay type: functional, cell-based
condition.description: HepG2, 48 h
Numbers only here, please. The scale is µM.

Recorded results for 2 molecules are shown here.
molecule	target.or.test.system	IC50, µM
CN1CCN(c2ccc(Nc3ncc([N+](=O)[O-])c(NC4CCCC4)n3)cc2)CC1	HepG2	5.2
CN1CCN(c2ccc(Nc3ncc(F)c(NC4CCCC4)n3)cc2)CC1	HepG2	25

## Task Provide one value: measured IC50 of "CCCNc1nc(Nc2ccc(N3CCOCC3)cc2)ncc1F"
## Result 20

## Task Find the measured IC50 of "Fc1cnc(Nc2ccc(N3CCOCC3)cc2)nc1NC1CCCC1" and report it.
## Result 36.5

## Task State, in one line, measured IC50 of "COc1cc(C(=O)NC2CCN(C)CC2)ccc1Nc1ncc(Cl)c(NC2CCCC2)n1"
## Result 9.3

## Task Please list IC50 recorded for the molecule Cc1cc(Nc2cc(N3CCN(C)CC3)nc(Sc3ccc(NC(=O)C4CC4)cc3)n2)n[nH]1 [TOZASERTIB]
## Result 63.4

## Task Supply reported IC50 belonging to this molecule: "COc1cc(C(=O)NC2CCN(C)CC2)ccc1Nc1ncc(F)c(NC2CCCC2)n1"
## Result 4.5

## Task Indicate its recorded IC50; the molecule in question is "CN1CCN(c2ccc(Nc3ncc(N)c(NC4CCCC4)n3)cc2)CC1"
## Result 18.5

## Task Using known records, supply IC50 for "Fc1cnc(Nc2ccc(N3CCOCC3)cc2)nc1NC1CC1"
## Result 33

## Task Tell us which IC50 value is on record for "CN1CCC(NC(=O)c2ccc(Nc3ncc(Br)c(NC4CCCC4)n3)cc2)CC1"
## Result 2.4

## Task Supply recorded IC50 for "COc1cc(C(=O)NC2CCN(C)CC2)ccc1Nc1ncc(Br)c(NC2CCCC2)n1" here.
## Result 4.9

## Task Identify measured IC50 corresponding to "O=[N+]([O-])c1cnc(Nc2ccc(N3CCOCC3)cc2)nc1NC1CCCC1"
## Result 21.9

====

Entries annotated with measured pIC50
System: HeLa
protocol.description: Cytotoxicity against human HeLa cells after 48 hrs by MTT assay
Format: functional, cell-based
FYI, pIC50 means -log10 of a concentration in mol per litre.

Completed entries (count: 6):
molecule	assay.result
Cc1cc(Nc2cc(N3CCN(C)CC3)nc(Sc3ccc(NC(=O)C4CC4)cc3)n2)n[nH]1 [TOZASERTIB]	4.56
O=[N+]([O-])c1cnc(Nc2ccc(N3CCOCC3)cc2)nc1NC1CCCC1	4.44
CN1CCN(c2ccc(Nc3ncc([N+](=O)[O-])c(NC4CCCC4)n3)cc2)CC1	5.42
CN1CCN(c2ccc(Nc3ncc(F)c(NC4CCCC4)n3)cc2)CC1	4.70
CN1CCC(NC(=O)c2ccc(Nc3ncc(Cl)c(NC4CCCC4)n3)cc2)CC1	5.82
CCCNc1nc(Nc2ccc(N3CCN(C)CC3)cc2)ncc1F	4.85

## Task Quote pIC50 reported for "CN1CCC(NC(=O)c2ccc(Nc3ncc([N+](=O)[O-])c(NC4CCCC4)n3)cc2)CC1" please.
## Result 4.66

## Task Return reported pIC50. Input molecule: "CN1CCN(c2ccc(Nc3ncc(N)c(NC4CCCC4)n3)cc2)CC1"
## Result 5.01

====

Tested on: HepG2
protocol.description: Cytotoxicity against human HepG2 cells after 48 hrs by MTT assay
Assay type: functional, cell-based
condition.description: HepG2, 48 h
experimental.readout: pIC50
Please express pIC50 as -log10 of the molar concentration.

compound	pIC50
CN1CCC(NC(=O)c2ccc(Nc3ncc(F)c(NC4CCCC4)n3)cc2)CC1	5.00

## Task // fetch pIC50 for "CN1CCC(NC(=O)c2ccc(Nc3ncc(Cl)c(NC4CCCC4)n3)cc2)CC1" ; system: HepG2
## Result 5.66

## Task Send back HepG2 pIC50 of "CCCNc1nc(Nc2ccc(N3CCN(C)CC3)cc2)ncc1F" only.
## Result 4.46

## Task Report pIC50 on HepG2 for this entry: "CN1CCC(NC(=O)c2ccc(Nc3ncc([N+](=O)[O-])c(NC4CCCC4)n3)cc2)CC1"
## Result 5.24
